I'd appreciate it if you could supply inhibition at 50 µM values for the items below.
- system_under_test: rat GPR14 (U-II receptor) (Rattus norvegicus)
- Construct: expressed in transfected cells
- Sequence (P49684 1-386): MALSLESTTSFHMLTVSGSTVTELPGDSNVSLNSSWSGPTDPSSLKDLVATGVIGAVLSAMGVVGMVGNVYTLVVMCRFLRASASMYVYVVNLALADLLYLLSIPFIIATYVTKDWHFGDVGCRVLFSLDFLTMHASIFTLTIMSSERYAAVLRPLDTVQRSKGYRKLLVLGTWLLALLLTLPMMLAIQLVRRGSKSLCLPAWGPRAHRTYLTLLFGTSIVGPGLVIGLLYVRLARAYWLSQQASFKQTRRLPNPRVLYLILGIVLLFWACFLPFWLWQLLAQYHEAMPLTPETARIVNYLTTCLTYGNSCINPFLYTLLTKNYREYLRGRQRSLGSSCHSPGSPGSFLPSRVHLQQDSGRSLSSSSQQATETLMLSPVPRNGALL
- method_description: Rat UII Calcium Mobilization FLIPR Assay
- Format: cell-based
- settings: CHO, 5 min, 50 μM compound; agonist-induced Ca2+ mobilization (FLIPR), CHO cells with rat UII receptor; read-out: % I @ 50
Note: state the figure and append the unit.

Any idea what inhibition at 50 µM came out for COc1ccc(CN2C(=O)c3cccc(N4CCN(Cc5cc(F)cc(F)c5)CC4)c3C2=O)cc1OC [Cpd 46] on rat GPR14 (U-II receptor) (Rattus norvegicus)? 54%

Same thing, different compound: COc1ccc(CN2C(=O)c3c(Cl)ccc(N4CC5CCC(C4)N5Cc4ccccc4)c3C2=O)cc1OC [Cpd 9] 81%

Same thing, different compound: Cc1c(CN2C(=O)c3cccc(N4CCN(Cc5ccccc5)CC4)c3C2=O)cnn1C [Cpd 55] 75%

###

- system_under_test: Human UII receptor, 6D9 human rhabdomyosarcoma cells (Homo sapiens, UniProt Q9UKP6)
- Construct: 6D9: isolated by dilution subcloning of RMS13 cells, ATCC® Number: CRL-2061
- Sequence (Q9UKP6 1-389): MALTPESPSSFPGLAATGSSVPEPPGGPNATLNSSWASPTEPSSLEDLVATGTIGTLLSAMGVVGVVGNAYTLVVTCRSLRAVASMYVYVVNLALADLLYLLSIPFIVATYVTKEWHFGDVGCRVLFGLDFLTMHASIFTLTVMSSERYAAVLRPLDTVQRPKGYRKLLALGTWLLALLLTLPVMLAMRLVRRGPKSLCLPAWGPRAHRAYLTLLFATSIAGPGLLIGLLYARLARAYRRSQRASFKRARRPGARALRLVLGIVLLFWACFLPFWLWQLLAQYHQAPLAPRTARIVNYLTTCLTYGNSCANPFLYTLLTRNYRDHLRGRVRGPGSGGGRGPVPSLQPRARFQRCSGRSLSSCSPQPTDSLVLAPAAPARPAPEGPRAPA
- method_description: Human UII Calcium Mobilization Assay
- settings: average value, FLIPR TETRA, read-out: Human UII Ca^+ Mobilization Average IC50
- Method: 6D9 human rhabdomyosarcoma cells were seeded into tissue culture treated 384-well black-walled clear bottom plates (3712, Corning Incorporated, Corning, N.Y.) at 8,000 cells/well in 25 μL of culture medium, and maintained in an incubator (5% CO2 at 37° C.) for 22 hrs prior to the calcium mobilization assay. […] The cell plates were incubated at 37° C. for 45 minutes and the fluorescence intensity was measured on a Fluorometric Imaging Plate Reader (FLIPR^TETRA, Molecular Devices, Sunnyvale, Calif.). […]
pIC50: −log10 of the molar value.
If the reported pIC50 equals or exceeds 6, assign y. If not, assign n.

Please indicate if the recorded pIC50 for CCN1CCN(c2cccc3c2C(=O)N(C(CC2CCN(S(=O)(=O)c4cccs4)CC2)c2ccc(OC)c(OC)c2)C3=O)CC1 (stereo not shown) [Cpd 234] meets or exceeds 6. n

Same thing, different compound: COc1ccc(C(CCCNS(=O)(=O)CS(C)(=O)=O)N2C(=O)c3cccc(N4CCN([C@H](C)c5ccccc5)CC4)c3C2=O)cc1OC (stereo partly shown) [Cpd 110] y

Same thing, different compound: COc1ccc([C@@H](CCCNC(=O)c2cscn2)N2C(=O)c3cccc(N4CCN([C@H](C)c5ccccc5)CC4)c3C2=O)cc1OC [Cpd 163] y

Same thing, different compound: CCN1CCN(c2cccc3c2C(=O)N([C@H](CCCNS(=O)(=O)c2c(C)nn(C)c2C)c2ccc(OC)c(OC)c2)C3=O)CC1 [Cpd 204] y

Same thing, different compound: COC(=O)c1sccc1S(=O)(=O)NCCCC(c1ccc(OC)c(OC)c1)N1C(=O)c2cccc(N3CCN([C@H](C)c4ccccc4)CC3)c2C1=O (stereo partly shown) [Cpd 94] y

Same thing, different compound: CCN1CCN(c2cccc3c2C(=O)N([C@H](CCCNC(=O)OC(C)(C)C)c2ccc(OC)c(OC)c2)C3=O)CC1 [Cpd 197] y

Same thing, different compound: COc1ccc([C@@H](CCCNS(=O)(=O)c2cccs2)N2C(=O)c3cccc(OCCN(C)C)c3C2=O)cc1OC [Cpd 229] n

Same thing, different compound: COC(=O)c1ccc(S(=O)(=O)NCCCC(c2ccc(OC)c(OC)c2)N2C(=O)c3cccc(N4CCN([C@H](C)c5ccccc5)CC4)c3C2=O)o1 (stereo partly shown) [Cpd 90] y

Same thing, different compound: COc1ccc([C@@H](CCCNS(=O)(=O)c2cccs2)N2C(=O)c3cccc(N4CCN([C@H](C)c5ccccc5)CC4)c3C2=O)cc1OC [Cpd 118] y

Same thing, different compound: COc1ccc([C@@H](CCCNS(=O)(=O)c2cccs2)N2C(=O)c3cccc(N4CCN(CC(F)(F)F)CC4)c3C2=O)cc1OC [Cpd 195] n

###

- system_under_test: rat GPR14 (U-II receptor) (Rattus norvegicus, UniProt P49684)
- Construct: expressed in transfected cells
- Sequence (P49684 1-386): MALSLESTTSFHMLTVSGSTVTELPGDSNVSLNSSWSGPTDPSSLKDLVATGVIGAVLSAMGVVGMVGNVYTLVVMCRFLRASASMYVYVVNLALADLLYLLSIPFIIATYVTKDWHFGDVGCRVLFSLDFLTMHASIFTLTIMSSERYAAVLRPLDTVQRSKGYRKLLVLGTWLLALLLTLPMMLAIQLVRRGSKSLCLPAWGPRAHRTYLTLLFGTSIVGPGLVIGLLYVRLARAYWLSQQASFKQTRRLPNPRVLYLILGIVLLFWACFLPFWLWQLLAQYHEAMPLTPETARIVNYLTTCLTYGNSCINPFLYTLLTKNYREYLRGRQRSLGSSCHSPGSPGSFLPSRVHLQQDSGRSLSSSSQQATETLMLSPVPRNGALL
- method_description: Rat UII Calcium Mobilization FLIPR Assay
- Assay type: cell-based
- settings: CHO, 5 min, 10 μM compound; agonist-induced Ca2+ mobilization (FLIPR), CHO cells with rat UII receptor; read-out: % I @ 10
I'd appreciate it if you could supply inhibition at 10 µM values for the items below.
Form entry: value (%) — number only.

I have this compound here, COc1ccc(CN2C(=O)c3cccc(N4CC5CCC(C4)N5Cc4ccccc4)c3C2=O)cc1OC [Cpd 7] , and I need its recorded inhibition at 10 µM. 89

Same thing, different compound: COc1ccc(CCN2C(=O)c3cccc(N4CC5CCC(C4)N5Cc4ccccc4)c3C2=O)cc1OC [Cpd 25] 90

Same thing, different compound: COc1ccc(CN2C(=O)c3c(Cl)ccc(N4CC5CCC(C4)N5Cc4ccccc4)c3C2=O)cc1OC [Cpd 9] 91

Same thing, different compound: CCOc1cc(CN2C(=O)c3cccc(N4CCN([C@H](C)c5ccccc5)CC4)c3C2=O)ccc1OC [Cpd 21] 90

###

- system_under_test: Human UII receptor, 6D9 human rhabdomyosarcoma cells (Homo sapiens, UniProt Q9UKP6)
- Construct: 6D9: isolated by dilution subcloning of RMS13 cells, ATCC® Number: CRL-2061
- method_description: Human UII Calcium Mobilization Assay
- settings: average value, FLIPR TETRA, read-out: Human UII Ca^+ Mobilization Average IC50
pIC50: −log10 of the molar value.
If the reported pIC50 equals or exceeds 6, assign true (1). If not, assign false (0).

Please indicate if the recorded pIC50 for `COc1ccc([C@@H](CCCNS(=O)(=O)c2cccs2)N2C(=O)c3cccc(N4CCN(Cc5ccsc5)CC4)c3C2=O)cc1OC` meets or exceeds 6. true (1)

Same thing, different compound: `COc1ccc([C@@H](CCCNC(=O)c2nccn2C)N2C(=O)c3cccc(N4CCN([C@H](C)c5ccccc5)CC4)c3C2=O)cc1OC` true (1)

Same thing, different compound: `COc1ccc([C@@H](CCCNS(=O)(=O)c2cccs2)N2C(=O)c3cccc(OCCCN(C)C)c3C2=O)cc1OC` false (0)

Same thing, different compound: `COc1ccc([C@@H](CCCNS(=O)(=O)c2c(C)n[nH]c2C)N2C(=O)c3cccc(N4CCN([C@H](C)c5ccccc5)CC4)c3C2=O)cc1OC` true (1)

Same thing, different compound: `COc1ccc(CN2C(=O)c3ccc(N4CCN([C@H](C)c5ccccc5)CC4)cc3C2=O)cc1OC` false (0)
